Readings of pIC50 for the listed compounds
target.desc: erk1 (Homo sapiens, UniProt P27361)
Sequence (P27361 whole entry, species assumed): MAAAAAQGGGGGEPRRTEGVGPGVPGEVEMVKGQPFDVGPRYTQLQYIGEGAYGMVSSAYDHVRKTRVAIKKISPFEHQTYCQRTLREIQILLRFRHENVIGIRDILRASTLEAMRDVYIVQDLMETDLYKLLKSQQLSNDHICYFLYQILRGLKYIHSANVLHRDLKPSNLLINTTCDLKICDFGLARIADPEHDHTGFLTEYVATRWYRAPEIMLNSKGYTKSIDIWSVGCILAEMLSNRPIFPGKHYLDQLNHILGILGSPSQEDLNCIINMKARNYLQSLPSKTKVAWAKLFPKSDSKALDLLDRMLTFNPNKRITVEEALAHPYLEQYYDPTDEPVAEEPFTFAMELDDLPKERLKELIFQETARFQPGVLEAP
pIC50: −log10 of the molar value.

Solved cases (2 shown):
CC[C@H](CO)Nc1nc(NCc2ccc(OC)cc2)c2ncn(C(C)C)c2n1 : < 5.00
COc1ccc(CNc2nc(N[C@@H](CO)CC(C)C)nc3c2ncn3C(C)C)cc1 : < 5.00

With those in mind, consider the next compound.
Exercise: Query the reported pIC50 for erk1 (Homo sapiens, UniProt P27361); item: COc1ccc(CNc2nc(N(CC(C)O)CC(C)O)nc3c2ncn3C(C)C)cc1 (stereo not drawn)
Key: 4.30
